Cited source for all entries: PubChem BioAssay

# Assayed system: Pantothenate synthetase (Mycobacterium tuberculosis (strain ATCC 25618 / H37Rv))
# Assay explanation: Coupled enzyme confirmation of inhibitors against recombinant Mtb PanC (AID 375);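 also: 0% = full reaction with vehicle and 100% = no enzyme background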
# Experimental parameters: coupled enzyme assay; at 10 µM, stronger effect = higher value
Each item that follows carries a reported inhibition.
Property label: inhibition (%)

Compound: COC(=O)Cc1cc(=O)n(-c2ccccc2)[nH]1
Unit abbreviation: %
Numeric result: 0
//
Compound: O=C(NCc1ccco1)c1cccc(-c2nnc(-c3ccccc3)o2)c1
Unit abbreviation: %
Numeric result: 0
//
Compound: CC(=O)c1cc(Cl)ccc1OC(=O)c1ccco1
Unit abbreviation: %
Numeric result: 0
//
Compound: COC(=O)c1ccc(CN(c2ccccc2OC)S(=O)(=O)c2cccs2)o1
Unit abbreviation: %
Numeric result: 2
//
Compound: CCOc1ccccc1C1N(c2ccc(F)cc2)C(=O)C2CCCN21 (stereo not given)
Unit abbreviation: %
Numeric result: 2
//
Compound: CCOc1ccc2cc(C#N)c(SCC(=O)N3CCCC3)nc2c1
Unit abbreviation: %
Numeric result: 0
//
Compound: O=C(NC1CC1)C1CCC(=O)N1C1CCCC1 (stereo not given)
Unit abbreviation: %
Numeric result: 4
//
Compound: Cc1csc2ncc(C(=O)N3CCc4ccccc43)c(=O)n12
Unit abbreviation: %
Numeric result: 6
//
Compound: CC(C)[C@@]1(NC(=O)[C@@H]2C=C3c4cccc5[nH]cc(c45)C[C@H]3N(C)C2)O[C@@]2(O)[C@@H]3CCCN3C(=O)[C@H](Cc3ccccc3)N2C1=O
Unit abbreviation: %
Numeric result: 3
//
Compound: O=C(CSc1nc2ccccc2c(=O)n1CCC(=O)N1CCCCC1)NCc1ccccc1
Unit abbreviation: %
Numeric result: 0

====

# Assayed system: Pantothenate synthetase (Mycobacterium tuberculosis (strain ATCC 25618 / H37Rv))
# Assay explanation: Coupled enzyme confirmation of inhibitors against recombinant Mtb PanC (AID 375);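 also: 0% = full reaction with vehicle and 100% = no enzyme background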
# Experimental parameters: coupled enzyme assay; at 10 µM, stronger effect = higher value

Compound: O=C1CC(c2ccco2)=Nc2ccccc2N1
inhibition / %: 6
//
Compound: Cc1[nH]c2ccccc2c1Cc1nnc(SCC(=O)NCc2ccco2)o1
inhibition / %: 1
//
Compound: O=C(COc1ccccc1F)NC1CC1
inhibition / %: 3
//
Compound: COC(=O)C1CCN(C(=O)NC(C)(C)C)CC1
inhibition / %: 6
//
Compound: C=CCOc1cccc(C2/C(=C(\O)c3ccc(F)cc3)C(=O)C(=O)N2CCN(C)C)c1 (stereo not drawn)
inhibition / %: 0
//
Compound: CC(=O)NCCCCCCNC(C)=O
inhibition / %: 0
//
Compound: COCCn1c(=NC(=O)CSC(C)=O)sc2cc(F)ccc21
inhibition / %: 12
//
Compound: Cc1cc(C(=O)Nc2nc3c(s2)CCCC3)cs1
inhibition / %: 0
//
Compound: COc1cc(C(=O)N2CCC(c3nc(-c4cccnc4)no3)CC2)cc(OC)c1OC
inhibition / %: 0
//
Compound: CC(C)(C)OC(=O)N1CC=C2C(C#N)=C(N)C(C#N)(C#N)[C@H](c3cccnc3)[C@H]2C1
inhibition / %: 5
//
Compound: CCCCc1c(O)nc(N2CCN(Cc3ccccc3)CC2)[nH]c1=O
inhibition / %: 7
//
Compound: Cc1c(C(=O)O)sc2nc3n(c(=O)c12)CCC(C)CC3 (stereo not drawn)
inhibition / %: 2
//
Compound: NC(=O)C1(N2CCCCC2)CCN(C(=O)Nc2ccccc2C(F)(F)F)CC1
inhibition / %: 1
//
Compound: CCOC(=O)N1CCN(CCC(=O)c2ccc(Cl)cc2)CC1
inhibition / %: 2
//
Compound: Cn1c(=O)c2c(nc(Br)n2CCSc2nnnn2-c2ccccc2)n(C)c1=O
inhibition / %: 0
//
Compound: COc1ccc(-c2nc3c(c(SCC(=O)N4CCOCC4)n2)COC(C)(C)C3)cc1
inhibition / %: 0
//
Compound: CCOC(=O)CCC(=O)c1c(C)oc2ccc(OC)cc12
inhibition / %: 4
//
Compound: COc1ccc(CCNC(=O)c2cc(C(C)C)on2)cc1OC
inhibition / %: 1
//
Compound: CCNC(=O)CC1C(=O)N(c2ccccc2)C(=O)N1Cc1ccc(OC)cc1 (stereo not drawn)
inhibition / %: 0
//
Compound: CCN(CC(=O)Nc1c(C(=O)OC)[nH]c2ccccc12)c1ccc2c(c1)OCO2
inhibition / %: 5
//
Compound: Cc1nc(CNS(=O)(=O)c2cc(C)c(C)cc2C)cs1
inhibition / %: 1
//
Compound: CCN(CC)CCNC(=O)c1ccc(CS(=O)(=O)c2ccc(Br)cc2)o1
inhibition / %: 0
//
Compound: O=C(CSc1ncn[nH]1)c1ccco1
inhibition / %: 0
